- Test system: Caco-2
- Assay text: drug sensitivity score (DSS) for viability; higher = more toxic; extreme values may be limits of the assay
- Measurement setup: 72 h
Assay metric: drug sensitivity score
Please respond with just the number, no unit label.

The following molecules have reported results that may help.
Consider CC(C)(C)c1ccc(-c2nc3c(N4CCN(Cc5ccc6nccnc6c5)CC4)cccc3[nH]2)cc1 . Its measured drug sensitivity score is 2

Consider O=C1S/C(=C\c2ccc(OCc3cccc(B(O)O)c3)cc2)C(=O)N1Cc1ccc(F)cc1 . Its measured drug sensitivity score is 0

Consider C=C1CC[C@@]2(O)[C@H]3Cc4ccc(O)c5c4[C@@]2(CCN3CC2CC2)[C@H]1O5 . Its measured drug sensitivity score is 0

Consider CC(C)(C)S(=O)(=O)N[C@H]1CC[C@H](C(=O)Nc2ccc(C(F)(F)F)cn2)CC1 . Its measured drug sensitivity score is 0

Consider O=C(NC1(c2ccccc2)CC1)c1c(CN2CCC(N3CCCCC3)CC2)c(-c2cccc(C(F)(F)F)c2)nc2cc(Br)ccc12 . Its measured drug sensitivity score is 2.5

Consider COc1cc(NC(=O)c2ccc(-c3ccc(Cl)cc3)o2)cc(OC)c1 . Its measured drug sensitivity score is 0

Consider CCC(C)SSc1ncc[nH]1 (configuration not stated) . Its measured drug sensitivity score is 0

Consider C/C(=C\C(=O)OCCCCCCCCC(=O)O)C[C@@H]1OC[C@H](C[C@@H]2O[C@H]2[C@@H](C)[C@H](C)O)[C@@H](O)[C@H]1O . Its measured drug sensitivity score is 0

Consider CC(=O)N1CCN(c2ccc(OC[C@@H]3CO[C@@](Cn4ccnc4)(c4ccc(Cl)cc4Cl)O3)cc2)CC1 (racemic) . Its measured drug sensitivity score is 0.3

Consider O=C(c1ccc(F)cc1)C1CCN(CCCCc2ccccc2)CC1 . Its measured drug sensitivity score is 0

Further cases:
Consider CC1(C)OC(=O)NC1=O . Its measured drug sensitivity score is 0

Consider COc1ccc(-c2ccc(=N)n(CCCC(=O)O)n2)cc1 . Its measured drug sensitivity score is 0

Consider CS(=O)(=O)CCNCc1ccc(-c2ccc3ncnc(Nc4ccc(OCc5cccc(F)c5)c(Cl)c4)c3c2)o1 . Its measured drug sensitivity score is 4.8
